B1: Twister Ribozyme (parent)
chain: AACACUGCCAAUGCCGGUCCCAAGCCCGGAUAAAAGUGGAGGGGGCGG

- Variants of: B1
- TEST DESCRIPTION: self-cleavage, relative activity (ratio to wild type); higher = more cleavage; co-transcriptional
MEASURE NAME: self-cleavage
Could you keep your reply to the number by itself?

Recorded self-cleavage, per entry:
{"columns": ["VARIANT", "TEST RESULT"],
 "data": [
  ["A34G G48U", 0.876],
  ["A10U G47C", 0.596]
]}

# input Consider the variant A1G G42C . State its measured self-cleavage.
# output 0.251

# input Supply reported self-cleavage belonging to this variant: C19G C27U
# output 0.131

# input Item U18C A40U : provide self-cleavage
# output 0.113

# input Consider the variant C5U C9G and give its recorded self-cleavage.
# output 0.342

# input Supply recorded self-cleavage for A35G G47U here.
# output 0.81

# input Read off the recorded self-cleavage for U6A G29U
# output 0.767

# input Write down self-cleavage measured for item G42A G48U
# output 0.397

# input Fill in self-cleavage for record A22C G29C
# output 0.929

# input Let me know recorded self-cleavage for G41A G44A , thanks.
# output 0.483
